Tested on: ACHN renal
experiment-summary: NCI-60 one-dose screen, 48 h (100 = growth as untreated, 0 = no growth, -100 = all killed)
experimental-context: 10 µM unless noted
The panel holds about 83,000 compounds, 20% with a hit somewhere; the sample as a whole holds those more often.
Respond with true for growth values of 80% and above, false for values below.

Example cases with answers are listed next.
# compound, assigned-label
data = [
    ("COc1ccc2nc(-c3ccc(-c4noc(-c5cc(OC)c(OC)c(OC)c5)n4)cc3)[nH]c2c1", "true"),
    ("CC1=C(C(=O)/C=C/c2ccc(N(C)C)cc2)C(c2ccccc2)NC(=S)N1 (stereo not drawn)", "true"),
    ("CCCCCCOc1ccc(/C=N/Nc2cc(C)nc3ccc(Cl)cc23)cc1", "false"),
    ("COc1cc2c(c(OC)c1OC)CCC(c1cccc(NC(=O)c3cccc(Br)c3)c1)O2 (stereo not drawn)", "true"),
]

Item `C/C(=N\NC(=O)CSc1nc2ccccc2c(=O)n1CCc1ccc(S(N)(=O)=O)cc1)c1ccccn1` with growth of 80% or above? false

Similarly, `CNC(=O)c1cncc(Cn2nc(C)c(NC(=O)c3ccc(COc4ccc(C(F)(F)F)cc4C)cc3)c2C)c1` ? false

Param item: `COc1ccc(C/C(C)=C(/c2ccc(OCCCN(C)C)cc2)c2ccc(OC(C)=O)cc2)cc1` true

Try the compound `COc1ccc(C(=O)c2cc(C)c(OC)c(C)c2)c(OC)c1NC(C)=O` false

What do you get for `COc1ccc(-c2cnc3c(-c4cccc5ncccc45)cnn3c2)cc1` ? false

Repeat for the following compound: `COc1cc(NC(=O)CSc2nc3ccc(C)cc3c(=O)n2Cc2ccccc2)cc(OC)c1OC` false

Also COc1cc(C2=NN(C(C)=O)C(c3cc(OC)c(OC)c(OC)c3)C2)ccc1O (stereo not drawn) ? false

// same read-out, input: COc1cc(NC(C)CCCNC(=O)CCC(=O)NCCCNCCCCCCCCNCCCNC(=O)CCC(=O)NCCCC(C)Nc2cc(OC)cc3cccnc23)c2ncccc2c1 (stereo not drawn) true

Next: `COc1cc(/C=N/O)nc(-c2ccccn2)c1` false

Another: `O=C(NCCc1ccccc1)Nc1ccc2cc3ccc(NC(=O)NCCc4ccccc4)cc3nc2c1` true

Would you kindly repeat that for `CCCCOc1ccc(/C=N/Nc2cc(C)nc3ccc(Br)cc23)cc1` ? false

Moving on to the next compound: `CCc1ccc(CNc2ccc(N3CCOCC3)c(C(=O)O)c2)cc1` true

Do the same for `COCCCN1CC(O)=C(c2nc(-c3ccc(C)cc3)cs2)C1=N` please true

Next up: `CCCOC(=O)N[C@H]1CCc2cc(OC)c(OC)c(OC)c2-c2ccc(SC)c(=O)cc21` false

# iterate: `COc1cccc(-c2nc3occn3c2-c2ccnc(NCCNS(=O)(=O)c3cccc4ccccc34)n2)c1` true

Repeat for the following compound: `CCOC(=O)c1ccc2c(c1)ncn2-c1ccc(NC(=O)Nc2cccc(C)c2)cc1` false

Now give it for `O=S(=O)(NCCNc1nccc(-c2c(-c3cccc(O)c3)nc3occn23)n1)c1ccc(C(F)(F)F)cc1` too. true

Another: `COc1cc(C(=O)Nc2cc3c(cc2Oc2cc(C)cc(C)c2)C(=O)N(C)[C@@H](CC(=O)N(C)O)C(=O)N3)c(Br)c(OC)c1OC` false

Then what about the compound `COCc1cnccc1NC1CCCCCC1` ? true

Thanks! And `O=C(Cn1c[n+](CC(=O)c2ccc([N+](=O)[O-])cc2)c2ccccc21)Nc1cccc2cccnc12` ? true

Would you mind doing CN1CCC(=C(c2ccccc2)c2ccccc2)C(c2ccccc2)C1 (stereo not drawn) as well? true

Follow-up entry: `N#CC(C#N)=Cc1cc2ccccc2nc1Oc1ccc(C(F)(F)F)cc1` true

Also, COc1cc(C2C3CC4CCCC[C@H]4N3[C@@]3(C(=O)Nc4cc(Cl)ccc43)C2C(=O)c2nc3ccccc3[nH]2)cc(OC)c1OC (stereo partly drawn) please. false

Now try `CCN(CC)c1ccc(C(=O)c2ccccc2)cc1` . true

Now consider `C=C(C)[C@@H]1CC[C@]2(C(=O)N3CCN(C)CC3)CC[C@]3(C)[C@H](CC[C@@H]4[C@@]5(C)C/C(=C/c6ccncc6)C(=O)C(C)(C)[C@@H]5CC[C@]43C)[C@@H]12` . false

Attribution: PubChem BioAssay (NCI)
